Origin of the recorded values: patent US20250066490A1

# target_under_test: T1, CD70 ECD (antigen immobilized on the CM5 chip) (UniProt P32970 39-193)
# T1 construct: extracellular domain; also called CD70 antigen
# T1 sequence (looked up): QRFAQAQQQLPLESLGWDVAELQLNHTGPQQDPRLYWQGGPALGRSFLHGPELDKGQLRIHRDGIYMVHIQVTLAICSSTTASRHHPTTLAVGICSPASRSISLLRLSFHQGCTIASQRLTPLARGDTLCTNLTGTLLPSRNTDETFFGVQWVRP
# assay_comment: SPR (Biacore T200), CD70 ECD on CM5 chip, IgG as analyte
kon by entry:
recorded_metric: kon (M⁻¹ s⁻¹)

binder	reading
69A7 (parent antibody), full IgG (antibody, V domains shown, also called parent antibody 69A7) VH: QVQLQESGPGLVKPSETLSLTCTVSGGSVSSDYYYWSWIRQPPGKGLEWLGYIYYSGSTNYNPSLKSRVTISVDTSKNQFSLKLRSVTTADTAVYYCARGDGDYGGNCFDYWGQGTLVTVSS VL: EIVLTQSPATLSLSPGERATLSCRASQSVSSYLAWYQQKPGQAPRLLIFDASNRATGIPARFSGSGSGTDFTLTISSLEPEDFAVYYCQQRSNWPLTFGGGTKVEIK	6330
2D2, full IgG (antibody, V domains shown) VH: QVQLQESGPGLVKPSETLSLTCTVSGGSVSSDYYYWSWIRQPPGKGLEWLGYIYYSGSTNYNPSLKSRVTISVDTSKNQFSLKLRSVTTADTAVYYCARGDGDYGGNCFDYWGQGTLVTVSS VL: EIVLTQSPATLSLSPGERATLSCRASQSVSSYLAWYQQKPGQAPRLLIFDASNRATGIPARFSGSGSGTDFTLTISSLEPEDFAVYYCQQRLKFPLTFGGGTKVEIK	11700
1F6 (Vorsetuzumab), reference antibody, full IgG (antibody, V domains shown, also called h1F6; h1 F6) VH: QVQLVQSGAEVKKPGASVKVSCKASGYTFTNYGMNWVRQAPGQGLKWMGWINTYTGEPTYADAFKGRVTMTRDTSISTAYMELSRLRSDDTAVYYCARDYGDYGMDYWGQGTTVTVSS VL: DIVMTQSPDSLAVSLGERATINCRASKSVSTSGYSFMHWYQQKPGQPPKLLIYLASNLESGVPDRFSGSGSGTDFTLTISSLQAEDVAVYYCQHSREVPWTFGQGTKVEIK	45100
